Assay: Dog pharmacokinetic studies, deep intramuscular administration
Assay type: in vivo, Beagle dogs
Settings: Beagle, dog, plasma, im, 48 mg/kg, IM 48 mg/kg (deep), Cottonseed + 1% Benzyl Alcohol; read-out: Half-life t1/2 (hour) prodrug (converted)
MEASUREMENT NAME: half-life (h)
Kindly provide the numeric value in h only, without the unit symbol.

Problem: Identify the reported half-life for the following entry. C=C1CC[C@@]2(O)C3Cc4ccc(OCOC(=O)OCCCCCCCCCCCC)c5c4[C@@]2(CCN3CC2CC2)[C@H]1O5
Result: 59.6

====

Test: Polymorph screening of solid state drug substances (Table 23)
Assay type: physicochemical
Details: Heptane, stirred 50 °C 72 hours
MEASUREMENT NAME: XRPD results (Dried)

Below, 5 compounds whose answers are already recorded.
1) C=C1CC[C@@]2(O)C3Cc4ccc(OC(=O)OCCCCCCCCCCCCCCCC)c5c4[C@@]2(CCN3CC2CC2)[C@H]1O5; Pattern A
2) CCCCCCCCCCCCOC(=O)Oc1ccc2c3c1O[C@H]1C(=O)CC[C@@]4(O)C(C2)N(CC2CC2)CC[C@]314; Pattern B
3) CCCCCCCCCCCCCCCC(=O)Oc1ccc2c3c1O[C@H]1C(=O)CC[C@@]4(O)C(C2)N(CC2CC2)CC[C@]314; Pattern B
4) CCCCCCCCCCOC(=O)Oc1ccc2c3c1O[C@H]1C(=O)CC[C@@]4(O)C(C2)N(CC2CC2)CC[C@]314; Pattern A
5) CCCCCCCCCCCCCCCCOC(=O)Oc1ccc2c3c1O[C@H]1C(=O)CC[C@@]4(O)C(C2)N(CC2CC2)CC[C@]314; Pattern A

Now take the following compound into account.
Problem: Identify the reported XRPD results (Dried) for the following entry. C=C1CC[C@@]2(O)C3Cc4ccc(OC(=O)OCCCCCCCCCCCCCC)c5c4[C@@]2(CCN3CC2CC2)[C@H]1O5
Result: Pattern A
